assay: NCI Yeast Anticancer Drug Screen. Data for the mec2-1 strain (AID 157); details: S. cerevisiae mec2-1 strain, at 50.0 µM (retest, dose inferred, filed as 5.0), active compounds read high
The panel holds about 79,000 compounds, 15% with a hit somewhere; the sample as a whole holds those more often.
endpoint label: growth inhibition (%)
Kindly provide the numeric value in % only, without the unit symbol.

The examples below pair each entry with its known result.
Cc1cc(N=NC(N)=S)c2ccccc2c1O	1
COC1=C(C)C(=O)C2=C(C1=O)C1C3CC4=C(C(=O)C(OC)=C(C)C4=O)C(CNC(=O)C(C)=O)N3C(C#N)C(C2)N1C (centres undefined)	99
CNc1ccc2c(c1)Cc1ccccc1-2	64
CCCCCCCCCCNCCSSCCNC(C)=O	99
COc1cc2c(cc1OC)c1c(OC)c(OC)cc3c1c1c2sc(=S)n1CC3	46

Query molecule follows.
## Task What does the record list as growth inhibition for Cc1ccc(O)c(C(c2ccc([N+](=O)[O-])cc2)c2cc(C)ccc2O)c1 ?
## Result 98

---

test: NCI Yeast Anticancer Drug Screen. Data for the sgs1 mgt1 strain (AID 161);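 further: 0% = growth of cultures given vehicle only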; conditions: S. cerevisiae sgs1 mgt1 strain, at 50.0 µM (retest, dose inferred, filed as 5.0)
This is part of a sample that, as a whole, favours compounds with a hit. Of some 79,000 tested, about 15% had one in any assay. Calls of active or inactive are those of the source. No stated cut-off is given here; in the data, active means growth inhibition above about 70%; inactive means the rest.
Write down the outcome that applies. Available outcomes: active, inactive

Here's what some known entries look like.
Cc1cccc2c(CBr)cc(=O)[nH]c12	active
O=[N+]([O-])c1ccc2nc(CCl)[nH]c2c1	active
O=C(c1ccc(Cl)cc1)c1ccc([N+](=O)[O-])cc1	inactive

Next, consider the following molecule.
## Task What was the test verdict on CC(=O)N(C)c1cc(NCc2ccccc2)ccc1OCc1ccccc1 ?
## Result active

---

# Lookup of reported growth inhibition keyed by entry
experiment: NCI Yeast Anticancer Drug Screen. Data for the sgs1 mgt1 strain (AID 161);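 further: 0% = growth of cultures given vehicle only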; conditions: S. cerevisiae sgs1 mgt1 strain, at 50.0 µM (retest, dose inferred, filed as 5.0), active compounds read high
About 79,000 compounds went through this panel and 15% of them were active in at least one assay; those are over-represented in the sample as a whole.
Kindly provide the numeric value in % only, without the unit symbol.

The examples below pair each entry with its known result.
Nc1cc(Br)cc2c1[nH]c1ccc(Br)cc12	99
CCCCCCCOC(=O)CSC#N	99

Query compound follows.
## Task What does the record list as growth inhibition for CNc1ccc2c(c1)Cc1ccccc1-2 ?
## Result 86

---

test: NCI Yeast Anticancer Drug Screen. Data for the sgs1 mgt1 strain (AID 161);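 further: 0% = growth of cultures given vehicle only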; settings: S. cerevisiae sgs1 mgt1 strain, at 50.0 µM, active compounds read high
About 79,000 compounds went through this panel and 15% of them were active in at least one assay; those are over-represented in the sample as a whole.
# Lookup of reported growth inhibition keyed by entry
Kindly provide the numeric value in % only, without the unit symbol.

The examples below pair each entry with its known result.
CCN(CC)CCNc1ccc(C)c2sc3c(OC)cccc3c(=O)c12	25.6
Nc1ccc2c(c1)C(=O)c1ccccc1-2	21.4
OC1C2CCC1C1C3C=CC(C3)C21 (configuration not stated)	42.4
NC(=O)C1CCN(N=Nc2c(-c3ccccc3)n[nH]c2-c2ccccc2)CC1	99.5
O=C1C(=C2C(=O)c3ccccc3[N+]2=O)N([O-])c2ccccc21	84.3

## Task What does the record list as growth inhibition for Cc1cc(C(O)(C(F)(F)F)C(F)(F)F)cc(C(O)(C(F)(F)F)C(F)(F)F)c1 ?
## Result 52.8

## Task Similarly, CC(=O)Nc1ccc(-c2csc(Nc3ccnc4cc(Cl)ccc34)n2)cc1 ?
## Result 72.8

## Task Similarly, CN(C)C=C1C(Cl)=C(C=O)CC(C=O)=C1Cl ?
## Result 63.7

## Task Similarly, COc1ccc2c(Cc3cc(Cl)ccc3O)cncc2c1O ?
## Result 29.7

## Task Similarly, Cc1ccc(O)c(-c2cscn2)c1 ?
## Result 55.5

## Task Similarly, CN(C)CCCN1c2cc(Cl)ccc2Sc2ccc3ccccc3c21 ?
## Result 99.2

## Task Similarly, COc1ccc(C(C)c2cc3c(cc2O)OCO3)cc1 (configuration not stated) ?
## Result 98.8

## Task Similarly, CN(C)c1ccc(/C=C/C(=O)c2ccc([N+](=O)[O-])cc2)cc1 ?
## Result -16.7

## Task Similarly, C/C(CCC1CCc2ccccc2C1)=N\NC(N)=O (configuration not stated) ?
## Result 6.2

## Task Similarly, CCCCCCCCCCC(C(=O)OCCCC)P(=O)(OCCCC)OCCCC (configuration not stated) ?
## Result 30.8

## Task Similarly, CCC(c1ccc(Cl)cc1)C(C#N)c1ccccc1 (configuration not stated) ?
## Result 69.4

## Task Similarly, O=[N+]([O-])c1ccc(-c2ccccc2Cl)c([N+](=O)[O-])c1 ?
## Result 91.2

## Task Similarly, COC12C(COC(N)=O)C3=C(C(=O)C(C)=C(N)C3=O)N1CC1C2N1C(=O)c1ccc(Cl)cc1 (configuration not stated) ?
## Result 65.5

## Task Similarly, O=C(O)c1cc(Br)ccc1OCc1ccc(Cl)cc1 ?
## Result 58

---

# Lookup of reported growth inhibition keyed by entry
assay: NCI Yeast Anticancer Drug Screen. Data for the mlh1 rad18 strain (AID 175); details: S. cerevisiae mlh1 rad18 strain growth inhibition; at 5.0 µM (retest, dose inferred, filed as 0.5); active compounds read high
This is part of a sample that, as a whole, favours compounds with a hit. Of some 79,000 tested, about 15% had one in any assay.
Kindly provide the numeric value in % only, without the unit symbol.

CCCCCN1C(=O)CC(C(=O)OCC)=C1C	1

## Task What does the record list as growth inhibition for COc1ccc(CN2CCCN(Cc3ccc(OC)cc3OC)C2c2cccc([N+](=O)[O-])c2O)c(OC)c1 ?
## Result 16

## Task Similarly, COc1ccc(N=Nc2ccc3oc(=O)c(C(=O)Nc4ccc(OC)cc4)cc3c2)cc1 ?
## Result 36

---

# Lookup of reported growth inhibition keyed by entry
assay: NCI Yeast Anticancer Drug Screen. Data for the mec2-1 strain (AID 157); details: S. cerevisiae mec2-1 strain, at 5.0 µM (retest, dose inferred, filed as 0.5), active compounds read high
The panel holds about 79,000 compounds, 15% with a hit somewhere; the sample as a whole holds those more often.
Kindly provide the numeric value in % only, without the unit symbol.

O=C1OC(c2cccc(Cl)c2)=N/C1=C\C=C/c1ccccc1	-27
CCCCCCCCCCCCCC(N)c1ccc(C)cc1 (stereo not drawn)	0
CCCc1nc2ccccc2c(=O)n1/N=C/c1ccccc1O	-1
C=C1CC2(C[C@@H](c3ccccc3)O[C@@H](c3ccccc3)C2)OC1=O (stereo partly drawn)	4
O=C(C[N+]12CN3CN(CN(C3)C1)C2)c1ccc(Cl)cc1Cl	9
N#CSc1ccc(O)cc1	1

## Task What does the record list as growth inhibition for COc1cccc(/C=C2/Sc3scc(-c4ccccc4)[n+]3C2=O)c1O ?
## Result -9

## Task Similarly, O=C(O)c1ccccc1/C=C1\Cc2ccc3c(c2C1=O)CCCC3 ?
## Result 6

## Task Similarly, N=Nc1c(OC(=O)Nc2ccccc2)[nH]c2ccccc12 ?
## Result 20

## Task Similarly, COc1cc(OC)c(C2CC(C)(OC)Oc3cc4c(cc32)OCO4)c(OC)c1 (stereo not drawn) ?
## Result 6

## Task Similarly, Cc1ccc(C(=O)/C=C/c2ccco2)c(C)c1 ?
## Result -42

---

# Lookup of reported growth inhibition keyed by entry
assay: NCI Yeast Anticancer Drug Screen. Data for the mlh1 rad18 strain (AID 175); settings: S. cerevisiae mlh1 rad18 strain growth inhibition; at 5.0 µM (retest, dose inferred, filed as 0.5); active compounds read high
The panel holds about 79,000 compounds, 15% with a hit somewhere; the sample as a whole holds those more often.
Kindly provide the numeric value in % only, without the unit symbol.

## Task What does the record list as growth inhibition for CC(C)Cc1cc(O)cc2ccccc12 ?
## Result 0

## Task Similarly, O=S(=O)(CC(Br)c1ccccc1)CC(Br)c1ccccc1 (stereo unspecified) ?
## Result -3

## Task Similarly, O=c1[nH]c2cc(Cl)ccc2nc1/C=C(\O)c1ccccn1 ?
## Result -1

## Task Similarly, O=C(NC(=O)C(F)(F)F)Nc1ccc(Cl)cc1 ?
## Result -1

## Task Similarly, CC(=O)c1ccc(Cl)c(N=Cc2cc(Br)ccc2O)c1 ?
## Result 64

---

test: NCI Yeast Anticancer Drug Screen. Data for the rad50 strain (AID 155);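 further: 0% = growth of vehicle-only cultures of the same strain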; conditions: S. cerevisiae rad50 strain growth inhibition; at 50.0 µM (retest, dose inferred, filed as 5.0)
The panel holds about 79,000 compounds, 15% with a hit somewhere; the sample as a whole holds those more often. Active and inactive are the calls of the source. No stated cut-off is given here; in the data, active means growth inhibition above about 70%; inactive means the rest.
Write down the outcome that applies. Available outcomes: true (1) for active, false (0) for inactive

Nc1ccc(S(=O)(=O)C23CC4CC(CC(C4)C2)C3)cc1	true (1)
O=P1(Cc2ccccc2)c2ccccc2-c2ccccc21	true (1)
O=C1c2ccc(O)c(O)c2C(=O)c2c(O)ccc(O)c21	true (1)

## Task What was the test verdict on O=C1OC(c2cccc(Cl)c2)=N/C1=C\C=C/c1ccccc1 ?
## Result false (0)

## Task Similarly, CCCCNc1ccc(-c2c(N)nc(N)nc2CC)cc1[N+](=O)[O-] ?
## Result false (0)

## Task Similarly, Cc1cc(C(O)(C(F)(F)F)C(F)(F)F)cc(C(O)(C(F)(F)F)C(F)(F)F)c1 ?
## Result true (1)
